pIC50 values, listed per item
# Subject Of Test: Human ATX protein (Homo sapiens, UniProt Q13822)
# Construct: made in house
# Assay Protocol: ATX biochemical assay (FRET, FS-3 substrate)
# Measurement Parameters: FRET assay, FS-3 2 μM, ATX 1.0 μg/mL, 30 minutes preincubation, 2 hours reaction at room temperature; read-out: IC50
pIC50: −log10 of the molar value.

# Compound, pIC50
measured = [
    ("CCCC1CC(CC(=O)N2CCc3c(C(F)(F)F)nn(Cc4ccc(F)cc4)c3C2)CCN1C(=O)OC(C)(C)C (stereo not shown) [Example 8-9]", "≥ 7.00"),
]

Would you kindly look at the next entry?
Value lookup for pIC50; key = O=C(C[C@H]1CC[C@H](C(=O)O)CC1)N1CCc2c(C(F)(F)F)nn(Cc3ccccn3)c2C1 [Example 5-23]
6.60 to 7.00

====

compounds and their reported pIC50
# Subject Of Test: Human ATX protein (Homo sapiens, UniProt Q13822)
# Construct: made in house
# Assay Protocol: ATX biochemical assay (FRET, FS-3 substrate)
# Measurement Parameters: FRET assay, FS-3 2 μM, ATX 1.0 μg/mL, 30 minutes preincubation, 2 hours reaction at room temperature; read-out: IC50
pIC50: −log10 of the molar value. Where a name gives a salt, the structure may show the parent alone.

# Compound, Property, Reported Value
measured = [
    ("O=C(CC1CCN(c2ccccn2)CC1)N1CCc2c(C(F)(F)F)nn(Cc3ccc(F)cc3)c2C1 [Example 18-2, TFA salt]", "pIC50", "≥ 7.00"),
    ("CN1CCCC(CC(=O)N2CCc3c(C(F)(F)F)nn(Cc4ccc(F)cc4)c3C2)C1 (stereo not shown) [Example 11-1, formate]", "pIC50", "≥ 7.00"),
    ("Cc1ccc(Cn2nc(C(F)(F)F)c3c2CN(C(=O)C[C@H]2CC[C@H](C(=O)O)CC2)CC3)cc1 [Example 5-14]", "pIC50", "≥ 7.00"),
]

Field: next compound
Reported pIC50, compound CS(=O)(=O)NC(=O)[C@H]1CC[C@@H](CC(=O)N2CCc3c(C(F)(F)F)nn(Cc4ccc(F)cc4)c3C2)CC1 [Example 19-2] : ____
≥ 7.00

====

# Subject Of Test: Human ATX protein (Homo sapiens)
# Construct: made in house
# Assay Protocol: ATX biochemical assay (FRET, FS-3 substrate)
# Measurement Parameters: FRET assay, FS-3 2 μM, ATX 1.0 μg/mL, 30 minutes preincubation, 2 hours reaction at room temperature; read-out: IC50
pIC50: −log10 of the molar value. Where a name gives a salt, the structure may show the parent alone.
Property: pIC50

# Compound, Subject Of Test, Reported Value
records = [
    ("O=C(CC1CCOCC1)N1CCc2c(C(F)(F)F)nn(Cc3ccc(F)cc3)c2C1", "Human ATX protein (Homo sapiens)", "≥ 7.00"),
    ("O=C(CN[C@H]1CC[C@@H](C(=O)O)CC1)N1CCc2c(C(F)(F)F)nn(Cc3ccc(F)cc3)c2C1 [Example 13-30, TFA salt]", "Human ATX protein (Homo sapiens)", "≥ 7.00"),
    ("O=C(C[C@H]1CC[C@H](C(=O)O)CC1)N1CCc2c(C(F)(F)F)nn(Cc3cc(F)c(F)c(F)c3)c2C1", "Human ATX protein (Homo sapiens)", "≥ 7.00"),
]

We now examine a further compound.
# lookup: pIC50 of O=C(C1CCn2cncc2C1)N1CCc2c(C(F)(F)F)nn(Cc3ccc(F)cc3)c2C1 (stereo not shown)
< 5.00
